# pEC50 per record follows
Biological target: human GPBAR1 receptor (Homo sapiens (Human), UniProt Q8TDU6)
Sequence (Q8TDU6 whole entry): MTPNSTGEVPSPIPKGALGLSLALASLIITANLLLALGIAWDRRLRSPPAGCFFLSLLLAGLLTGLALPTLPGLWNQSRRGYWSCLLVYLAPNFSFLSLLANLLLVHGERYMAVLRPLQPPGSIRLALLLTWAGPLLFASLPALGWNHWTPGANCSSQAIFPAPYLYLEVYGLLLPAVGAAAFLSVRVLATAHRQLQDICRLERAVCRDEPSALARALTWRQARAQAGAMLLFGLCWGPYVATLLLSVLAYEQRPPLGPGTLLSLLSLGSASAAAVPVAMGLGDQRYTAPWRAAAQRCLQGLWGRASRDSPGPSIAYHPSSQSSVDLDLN
Experiment: functional cAMP assay in CHO-dhfr(minus) cells expressing human GPBAR1 receptors
Details: CHO-dhfr(minus) cells expressing human GPBAR1, 30 min at 30° C.
Description: The final clone was verified by DNA sequence analysis. The plasmid was transfected into CHO cells deficient in dihydrofolate reductase activity (CHO-dhfr-) using Lipofectamine plus (Invitrogen). Clones were isolated in limited dilution conditions and identified by activities in the cAMP assay using lithocholic acid as agonist. EC50 values were determined using Activity Base analysis (ID Business Solution, Limited). […]
Give only the number. pEC50 is defined as minus log10 of concentration in molar units.

Below, each entry is followed by its recorded pEC50 result.
molecular.string: O=C(c1cc(C(F)(F)F)nc(C(F)(F)F)c1)N(CC(F)(F)F)c1cnccc1-c1ccccc1F
target.entity: human GPBAR1 receptor (Homo sapiens (Human), UniProt Q8TDU6)
pEC50: 7.33

molecular.string: COc1cc(F)ccc1-c1ccncc1N(C)C(=O)c1cc(SCCNC(=O)OC(C)(C)C)cc(C(F)(F)F)c1
target.entity: human GPBAR1 receptor (Homo sapiens (Human), UniProt Q8TDU6)
pEC50: 6.39

molecular.string: CN(C(=O)c1cc(C(F)(F)F)cc(C(F)(F)F)c1)c1cnccc1-c1cccc(F)c1F
target.entity: human GPBAR1 receptor (Homo sapiens (Human), UniProt Q8TDU6)
pEC50: 6.97

Exam item: Which pEC50 reading was recorded for the compound "Cc1ccccc1-c1ccncc1N(C)C(=O)c1cc(C(F)(F)F)ccc1F" ?
Marked response: 6.61

Values were extracted from patent US10385022B2.
